molecular target: Nuclear receptor coactivator 2 (Homo sapiens) (UniProt Q15596); assay: SRC2 coactivator transcriptional activity inhibitors, confirmation, cell-based, luminescence, HEK293, triplicate (AID 652008); conditions: HEK293 GAL4-SRC2 luciferase reporter, at 8.9 µM;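 note: 0% = DMSO-treated cells and 100% = Gossypol at 36 µM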
Sequence (Q15596 whole entry, looked up, the tested form may be a part): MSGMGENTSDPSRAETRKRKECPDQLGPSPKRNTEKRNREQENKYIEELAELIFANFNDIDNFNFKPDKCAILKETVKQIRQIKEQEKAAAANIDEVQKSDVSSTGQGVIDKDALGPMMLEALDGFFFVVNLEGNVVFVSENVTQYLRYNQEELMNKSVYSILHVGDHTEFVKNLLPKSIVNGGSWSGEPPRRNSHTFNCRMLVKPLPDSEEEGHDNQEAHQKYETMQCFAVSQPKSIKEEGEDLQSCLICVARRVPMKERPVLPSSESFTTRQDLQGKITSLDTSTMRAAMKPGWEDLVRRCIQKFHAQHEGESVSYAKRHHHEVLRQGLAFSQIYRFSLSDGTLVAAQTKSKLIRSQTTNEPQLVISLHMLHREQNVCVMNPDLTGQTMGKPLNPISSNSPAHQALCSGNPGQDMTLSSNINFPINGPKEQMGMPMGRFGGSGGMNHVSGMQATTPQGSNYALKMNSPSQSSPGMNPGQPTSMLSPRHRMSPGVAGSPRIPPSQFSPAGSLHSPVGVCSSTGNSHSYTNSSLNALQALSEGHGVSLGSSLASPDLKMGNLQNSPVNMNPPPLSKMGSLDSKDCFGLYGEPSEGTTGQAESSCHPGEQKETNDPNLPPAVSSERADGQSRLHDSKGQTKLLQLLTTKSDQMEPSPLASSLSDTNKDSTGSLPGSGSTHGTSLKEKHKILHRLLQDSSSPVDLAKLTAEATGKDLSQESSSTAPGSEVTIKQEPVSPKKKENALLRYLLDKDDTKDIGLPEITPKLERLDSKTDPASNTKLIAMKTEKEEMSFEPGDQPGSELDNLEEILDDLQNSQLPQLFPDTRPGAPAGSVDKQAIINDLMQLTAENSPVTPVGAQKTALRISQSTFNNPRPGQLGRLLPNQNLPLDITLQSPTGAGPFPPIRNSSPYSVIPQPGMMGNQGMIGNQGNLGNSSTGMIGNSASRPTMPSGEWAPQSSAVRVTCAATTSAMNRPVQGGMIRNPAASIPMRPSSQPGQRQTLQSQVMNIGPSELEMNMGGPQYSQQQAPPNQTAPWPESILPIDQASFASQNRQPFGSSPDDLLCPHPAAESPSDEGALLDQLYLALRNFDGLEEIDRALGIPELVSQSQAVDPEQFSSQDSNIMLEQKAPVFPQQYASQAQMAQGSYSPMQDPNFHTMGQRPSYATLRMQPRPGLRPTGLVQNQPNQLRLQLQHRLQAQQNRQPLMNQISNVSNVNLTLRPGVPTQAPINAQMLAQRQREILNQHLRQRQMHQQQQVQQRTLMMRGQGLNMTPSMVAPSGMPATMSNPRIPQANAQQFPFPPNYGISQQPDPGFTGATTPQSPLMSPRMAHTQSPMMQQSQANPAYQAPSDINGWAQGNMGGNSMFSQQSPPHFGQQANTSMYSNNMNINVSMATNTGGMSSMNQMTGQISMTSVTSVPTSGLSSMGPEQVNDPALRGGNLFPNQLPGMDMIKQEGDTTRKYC
Active and inactive are the calls of the source.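 Rule for the calls: active = mean inhibition above 46.5%, the solvent-only control mean plus 3 SD; inactive = the rest.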
Write down one outcome, taken from 1 for active, -1 for inactive

// known answers, use as guide
COc1ccccc1/C=C/C(=O)c1c2c(c(C)[nH]c1=O)CCCC2 : -1
COc1cc(SC)ccc1C(=O)Nc1nc(C)cs1 : 1
CCc1cc(-c2[nH]ncc2-c2ccc3c(c2)OCO3)c(O)cc1O : -1
CN(C)c1ccc(C2Nc3ccccc3C(=O)N2CCCN2CCOCC2)cc1 (stereo unspecified) : -1
COc1ccc(OC)c(NC(=O)c2cc(-c3cc(F)ccc3OCC3CCCO3)n[nH]2)c1 (stereo unspecified) : -1

Q. Assay outcome for COc1ccc(S(=O)(=O)N2CCCCCC2)cc1C(=O)NCc1ccco1 : what was it?
A. -1

Q. CCCNC(=O)c1ccc(N2CCC3(CC2)CC(c2cccc(Br)c2)=NO3)c([N+](=O)[O-])c1 ?
A. -1

Q. Another molecule to look at: CC1CCC(C(C)C)C(OCC(O)CN2CCCC(C)C2)C1 (stereo unspecified)
A. -1

----------
Please provide measured inhibition for the entries that follow.
target: Nuclear receptor coactivator 3 (Homo sapiens) (UniProt Q9Y6Q9); assay: SRC3 coactivator transcriptional activity inhibitors, confirmation, cell-based, luminescence, quadruplicate (AID 588792); conditions: HEK293 GAL4-SRC3 luciferase reporter, at 3.6 µM, active compounds read high;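 note: 0% = DMSO treated cells and 100% = gossypol at 36 µM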
Sequence (Q9Y6Q9 whole entry, looked up, the tested form may be a part): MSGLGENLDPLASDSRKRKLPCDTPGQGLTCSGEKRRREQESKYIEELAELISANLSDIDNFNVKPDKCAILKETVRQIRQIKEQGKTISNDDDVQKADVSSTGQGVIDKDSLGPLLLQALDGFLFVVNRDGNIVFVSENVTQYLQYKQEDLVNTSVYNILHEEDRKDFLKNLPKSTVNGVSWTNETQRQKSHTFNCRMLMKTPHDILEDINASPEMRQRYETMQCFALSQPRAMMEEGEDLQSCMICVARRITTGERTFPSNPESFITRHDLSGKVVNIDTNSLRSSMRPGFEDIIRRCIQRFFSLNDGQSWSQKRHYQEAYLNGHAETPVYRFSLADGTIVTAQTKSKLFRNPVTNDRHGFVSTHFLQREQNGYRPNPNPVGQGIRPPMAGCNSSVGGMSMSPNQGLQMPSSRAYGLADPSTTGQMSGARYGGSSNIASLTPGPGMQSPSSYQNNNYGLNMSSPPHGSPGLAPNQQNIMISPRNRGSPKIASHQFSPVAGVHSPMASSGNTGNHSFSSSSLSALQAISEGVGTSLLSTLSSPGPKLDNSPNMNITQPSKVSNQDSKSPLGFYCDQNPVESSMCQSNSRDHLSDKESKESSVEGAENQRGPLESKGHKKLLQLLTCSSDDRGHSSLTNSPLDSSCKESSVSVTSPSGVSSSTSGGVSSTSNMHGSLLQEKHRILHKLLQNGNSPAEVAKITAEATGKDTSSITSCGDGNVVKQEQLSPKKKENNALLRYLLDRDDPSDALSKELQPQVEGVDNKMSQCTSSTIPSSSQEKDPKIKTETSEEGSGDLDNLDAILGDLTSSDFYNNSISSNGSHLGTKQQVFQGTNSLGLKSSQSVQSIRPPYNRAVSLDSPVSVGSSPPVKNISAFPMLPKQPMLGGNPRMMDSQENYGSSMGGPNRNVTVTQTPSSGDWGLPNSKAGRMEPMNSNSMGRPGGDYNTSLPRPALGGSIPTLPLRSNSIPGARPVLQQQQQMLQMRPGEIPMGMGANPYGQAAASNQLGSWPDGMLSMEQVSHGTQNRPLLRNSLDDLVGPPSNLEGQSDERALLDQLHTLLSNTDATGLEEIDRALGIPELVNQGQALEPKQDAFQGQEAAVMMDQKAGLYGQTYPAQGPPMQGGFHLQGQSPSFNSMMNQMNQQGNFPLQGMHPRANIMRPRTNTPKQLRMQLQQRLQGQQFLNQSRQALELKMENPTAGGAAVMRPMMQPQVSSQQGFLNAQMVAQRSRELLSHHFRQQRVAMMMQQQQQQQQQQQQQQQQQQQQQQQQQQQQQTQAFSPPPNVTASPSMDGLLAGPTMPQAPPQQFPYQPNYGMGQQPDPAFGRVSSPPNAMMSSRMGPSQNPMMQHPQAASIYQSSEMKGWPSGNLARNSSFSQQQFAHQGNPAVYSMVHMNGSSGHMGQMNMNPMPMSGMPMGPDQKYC
One number for each entry, in %.

Reference set (5 entries):
COc1cccc(-c2csc3ncnc(Sc4nnnn4C)c23)c1 : 5.54
COCCn1c(C)cc(C2=NNC(=Nc3ccccc3F)SC2)c1C : 57.4
CC(=O)c1c(C)n(-c2ccc(Br)cc2)c2ccc(O)cc12 : 53.3
Cc1ccc(NC2=C(N3CCCCC3)C(=O)c3ccccc3C2=O)cc1 : -30.8
Cc1ccc(-n2cccn2)c(CN2CCCC(C(=O)c3sccc3C)C2)c1 (stereo unspecified) : 18.9

Working through the 8 compounds below one at a time, give inhibition for each.
1. CCC(=O)NC(c1ccc(Cl)cc1Cl)c1ccc2cccnc2c1O (stereo unspecified)
2. O=C(N/N=C\c1c(O)ccc2ccccc12)c1ccc(Cn2cccn2)o1
3. CCc1nc(Nc2ccc3nccnc3c2)c2oc3ccccc3c2n1
4. Cc1ccc(C(=O)OCC(=O)Nc2sccc2C(N)=O)cc1NC(=O)c1ccco1
5. O=C(O)C1CCCCC1C(=O)Nc1ccc2c(c1)OCCO2 (stereo unspecified)
6. COc1ccc2c(=O)c3c(=O)n(CCc4ccccc4)c(C(C)C)nc3oc2c1
7. Cc1nc2ccc(NC(=O)c3cccs3)cc2c(=O)n1Cc1ccc(Cl)cc1
8. CCCCCCCCCCCCCCCCn1cc[n+](C)c1

A.
1. 16.2
2. 49.1
3. 5.99
4. 18.4
5. -6.32
6. 4.29
7. 4.95
8. 5.39

Please give inhibition for each item listed below.
1. C=C[C@@H]1c2c(F)cccc2N(S(=O)(=O)c2ccc(C)cc2)[C@H](c2ccc(OC(C)=O)cc2)C1(C#N)C#N
2. COc1cc(/C=C2\CC(C(C)(C)C)C/C(=C\c3cc(OC)c(OC)c(OC)c3)C2=O)cc(OC)c1OC (stereo unspecified)
3. Cn1c(/C=C/c2cccc([N+](=O)[O-])c2)c([N+](=O)[O-])c(=O)n(C)c1=O

A.
1. 10.4
2. 58.4
3. 37.6

State recorded inhibition for all listed compounds.
1. Cc1ccc2c(c1)/C(=C/c1ccc(F)cc1)C(=O)N2
2. Cc1cccc(NC(=S)N(CCCN2CCOCC2)Cc2cn(C)c3ccccc23)c1
3. CC(=O)c1c(C)[nH]c(C(=O)OCC(=O)Nc2ccc(C)cc2[N+](=O)[O-])c1C
4. COc1cc(C(=O)/C=C/c2cccnc2)c([N+](=O)[O-])cc1OC

A.
1. 7.93
2. -2.78
3. 32.4
4. 33.2

Q. Which inhibition reading was recorded for the compound COC(=O)c1cc(S(=O)(=O)NCCc2ccc(Cl)cc2)c[nH]1 ?
A. 29.2

----------
assay: VP16 transactivation reporter inhibitors, counter-screen for LRH-1 inverse agonist project, cell-based, luminescence, high throughput (AID 651615); details: Gal4-VP16 luciferase reporter cells, at 3.6 µM
Active and inactive are the calls of the source. Rule as the data show it: active = inhibition above about 33%; inactive = the rest.
Just give me one of these, please: 1.0 = active, 0.0 = inactive

Solved entries:
COc1ccc(N=C2NN=C(c3c(C)[nH]c4ccccc34)CS2)cc1 : 0.0
COc1ccc(S(=O)(=O)N2CCOCC2)cc1NC(=O)CCNC(=O)c1ccc(Br)cc1 : 1.0
COCCn1c(C)cc(C2=NNC(=Nc3ccccc3F)SC2)c1C : 0.0

Q. I would be grateful if you could indicate the recorded call for O=C(COC(=O)Cc1ccc(F)cc1)NCCc1ccccc1 .
A. 0.0

Q. // next record CCOC(=O)C(C(C)=O)c1c(Br)c(O)c(O)c2c(C(=O)c3ccc(C)cc3)coc12 (stereo not given)
A. 1.0

----------
Please provide measured inhibition for the entries that follow.
assay: growth loss of phage-infected RecBCD+ E. coli, confirmation, RecBCD inhibitor project, absorbance, E. coli V66, T4 gene 2 phage (AID 651982); conditions: E. coli V66 + T4 2- phage, growth OD; at 11.9 µM; active compounds read high
The other results are listed elsewhere or left out.
Give bare numbers, in %.

CCCCC(=O)NC(c1ccc(OC)c(OC)c1)c1ccc2cccnc2c1O (centres undefined) : 13.9

Hi, could you look up inhibition for each item in my list?
1. Cc1ccc(-c2cnc(C(O)c3cc(Cl)cc(Cl)c3)[nH]2)cc1 (centres undefined)
2. COc1ccc(OC)c(Cc2cnc3nc(N)nc(N)c3c2C)c1
3. COc1cccc(C(O)c2ncc(-c3ccc4ccccc4c3)[nH]2)c1 (centres undefined)
4. C=CCNC(=O)CSc1nc2sc(C)c(C)c2c(=O)[nH]1
5. CC1(C(=O)NS(=O)(=O)c2ccccc2)CCN1C(=O)C/C=C/c1ccccc1 (centres undefined)
6. C=C1c2c(Cl)ccc(O)c2C(O)=C2C(=O)[C@]3(O)C(O)=C(C(N)=O)C(=O)[C@@H](N(C)C)[C@@H]3[C@@H](O)C12 (some centres undefined)
7. Oc1c(Cl)cc(Cl)c(Cl)c1Cc1c(O)c(Cl)cc(Cl)c1Cl
8. CCN1CCN(C(=O)N[C@@H](C(=O)N[C@@H]2C(=O)N3C(C(=O)O)=C(CSc4nnnn4C)CS[C@H]23)c2ccc(O)cc2)C(=O)C1=O

A.
1: 12.2; 2: 79.8; 3: 7.6; 4: -1.59; 5: -4.38; 6: 102; 7: 11.6; 8: 99.8

----------
Give measured inhibition for each item. Keep answers brief.
system: transactivating tegument protein VP16 (Human herpesvirus 1), Gal4-VP16 luciferase reporter; assay: VP16 transactivation inhibitors, counter-screen for SRC3 inhibitor project, cell-based, luminescence, high throughput (AID 588794); conditions: mammalian cells, VP16-driven luciferase reporter luminescence; at 3.6 µM; active compounds read high
One number for each entry, in %.

CN1c2ccc(C=O)c3c(C=O)ccc(c23)N(C)C1(C)C : 9.96
O=C(CCCc1nc(-c2ccccc2Cl)no1)NC1CCCC1 : -6.22
Nc1ccc(-c2nc3ccc(C(=O)O)cc3s2)cc1 : -26.4
Cc1ccc2nc(-c3ccccc3)cn2c1 : -9.75
CC(=O)c1cccc(-c2csc3ncnc(Sc4nnnn4C)c23)c1 : 20.4

Hello, I would appreciate it if you could give inhibition for each entry below.
1. COc1ccc(/C=C2\SC(=S)N(CCCC(=O)N3CCCCC3CCO)C2=O)cc1 (configuration not stated)
2. Cc1ccccc1NC(=O)C(=Cc1ccc(C(=O)O)cc1)C(=O)Nc1ccccc1C

A.
17.1
43.2

// batch mode: one inhibition value per listed entry
1. CCCc1ccc(C(=O)O/N=C(\N)c2ccccn2)cc1
2. C=CC[n+]1ccc(/C=C2\C=Cc3cc(C)ccc3N2CC)c2ccccc21
3. C=C(C(=O)c1ccccc1)C(CC(=O)c1ccccc1)c1ccccc1 (configuration not stated)
4. C=CCOc1ccc(/C=C2\SC(=S)N(CCC(=O)O)C2=O)cc1

A.
1: -24.7; 2: 86; 3: 41.1; 4: -27

----------
Record form. Attribute: inhibition. Fill in for each entry.
test: StAR promoter reporter inhibitors, counter-screen for LRH-1 inverse agonist project, cell-based, luminescence, high throughput (AID 651611); conditions: StAR promoter luciferase reporter counterscreen, at 3.6 µM, active compounds read high
Numbers only, in %.

Study these solved cases before continuing.
Cc1cc(C)nc(N/N=C/c2ccc([N+](=O)[O-])o2)n1 : 8.46
CN1CCN(c2ccc(S(=O)(=O)N3CCCCC3)cc2NC(=O)COc2ccc([N+](=O)[O-])cc2)CC1 : 2.36
Cc1ccccc1NC(=O)c1ccc([N+](=O)[O-])o1 : 8.33

Batch of 2 compounds: report inhibition for each.
1. O=c1[nH]c2cc3ccccc3cc2nc1-c1nnnn1C1CCCC1
2. O=C(Nc1ccc(N2CCN(Cc3ccccc3F)CC2)cc1)c1ccc([N+](=O)[O-])o1

A.
1: 33.8; 2: 28.7

Parameters: items (list). Returns: inhibition for each item.
1. COc1ccc(S(=O)(=O)N2CCN(CC(=O)Nc3ccc(C)c(F)c3)CC2)cc1
2. COc1ccccc1-c1cc(NC=O)c2ncc(-c3ccc(S(C)(=O)=O)cc3)n2c1
3. CC(C)c1ccc(-n2c(-c3ccccc3)c[n+]3c2CCc2ccccc2-3)cc1
4. CC(C)CCOc1cccc(OCC(=O)Nc2ccncc2)c1

A.
[17.5, 31.8, 76.3, 21.4]

Batch of 6 compounds: report inhibition for each.
1. Cc1sc2ncnc(NCC(O)c3ccc([N+](=O)[O-])cc3)c2c1C (centres undefined)
2. CCN1C(=O)c2cccc3c(N)ccc1c23
3. Cc1ccc(NC(=O)CSc2nc3[nH]c(=O)cc(O)c3s2)c(Br)c1
4. NC(=O)C1CCN(C(=O)COc2ccc3c4c(c(=O)oc3c2)CCC4)CC1
5. CCOc1ccc(-n2c(-c3ccc(OC)cc3)c[n+]3c2CCCCC3)cc1
6. CC(=O)Nc1ccc(NC(=O)COC(=O)c2c(C)nn(-c3ccccc3)c2C)cc1

A.
1. 15.4
2. 33.4
3. 5.79
4. 5.21
5. 52.9
6. 10.2
